- tested.target: Galectin-3 (Homo sapiens)
- Sequence (P17931 whole entry): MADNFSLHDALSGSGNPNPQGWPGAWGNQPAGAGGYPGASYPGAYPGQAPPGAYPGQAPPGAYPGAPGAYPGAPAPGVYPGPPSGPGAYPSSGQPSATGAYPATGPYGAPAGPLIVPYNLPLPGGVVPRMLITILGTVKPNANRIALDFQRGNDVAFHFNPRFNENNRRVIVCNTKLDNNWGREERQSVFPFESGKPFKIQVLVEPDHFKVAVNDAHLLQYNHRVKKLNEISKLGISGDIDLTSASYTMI
Entries whose IC50 is below 300 nM take condition met; entries at or above 300 nM take condition not met.

compound	tested.target	group
OC[C@H]1O[C@@H](SC(c2ncccc2C(F)(F)F)C2(O)CC(F)(F)C2)[C@H](O)[C@@H](n2cc(-c3cc(F)c(F)c(F)c3)nn2)[C@H]1O (stereo not given in full)	Galectin-3 (Homo sapiens)	condition not met

Exercise: Input OC[C@H]1O[C@@H](S[C@H](c2ncccc2C(F)(F)F)C2(O)CC(F)(F)C2)[C@H](O)[C@@H](n2cc(-c3cc(F)c(F)c(F)c3)nn2)[C@H]1O [US12404295, Example 2.35.125R.] ; condition: IC50 strictly below 300 nM. Does it hold?
Key: condition met

// data source = BindingDB's records for patent US12404295
